System: EB-3 (Burkitt's Lymphoma)
experimentDescription: Bliss excess, mean over the matrix (fraction); higher = more synergy
resultType: Bliss excess
Please state the value as a number alone, without comment.

# molecule, resultType, testResult
rows = [
    ("C=CCn1c(=O)c2cnc(Nc3ccc(N4CCN(C)CC4)cc3)nc2n1-c1cccc(C(C)(C)O)n1 [AZD1775] + CCc1c2c(nc3ccc(O)cc13)-c1cc3c(c(=O)n1C2)COC(=O)[C@]3(O)CC [SN-38] (first compound max 1 µM, partner max 0.3 µM)", "Bliss excess", -0.0467),
]

Query block: Give its Bliss excess value. Item: COc1nnc2ccc(N3CCC(c4ccc(OCCN5CCN(C)C(=O)[C@H]5C)cc4)CC3)nn12 [AZD5153] + CCN(CCO)CCCOc1ccc2c(Nc3cc(CC(=O)Nc4cccc(F)c4)[nH]n3)ncnc2c1 [AZD2811] (first compound max 1 µM, 7x7, partner max 1 µM)
Result block: -0.0701

* * *

System: SJRH30 (Rhabdomyosarcoma)
experimentDescription: combination Emax (second highest fraction inhibited in the dose matrix, 72 h); higher = more inhibition; extreme values may be limits of the assay
resultType: combination Emax
Please state the value as a number alone, without comment.

Study these solved cases before continuing.
# molecule, experimentalSystem, combination Emax
rows = [
    ("Cc1c2c(nn1C)CSCc1cc(n(C)n1)CSc1cc(c3ccccc3c1)OCCCc1c(C(=O)O)n(C)c3c-2c(Cl)ccc13 [AZD5991] + Cc1cc2ncnn2cc1Nc1ncc2c(n1)n(C1CCOCC1)c(=O)n2C [AZD7648] (first compound max 1 µM, 7x7, partner max 10 µM)", "SJRH30 (Rhabdomyosarcoma)", 0.478),
    ("CN(CCO)CC[C@H](CSc1ccccc1)Nc1ccc(S(=O)(=O)NC(=O)c2ccc(N3CCC([C@@H](O)c4ccccc4-c4ccc(Cl)cc4)CC3)cc2)cc1S(=O)(=O)C(F)(F)F [AZD4320] + Cc1cc2ncnn2cc1Nc1ncc2c(n1)n(C1CCOCC1)c(=O)n2C [AZD7648] (first compound max 1 µM, 7x7, partner max 10 µM)", "SJRH30 (Rhabdomyosarcoma)", 0.147),
]

Query block: Give recorded combination Emax with SJRH30 (Rhabdomyosarcoma) for the following molecule: CN(CCO)CC[C@H](CSc1ccccc1)Nc1ccc(S(=O)(=O)NC(=O)c2ccc(N3CCC([C@@H](O)c4ccccc4-c4ccc(Cl)cc4)CC3)cc2)cc1S(=O)(=O)C(F)(F)F [AZD4320] + Cn1cnc2c(F)c(Nc3ccc(Br)cc3Cl)c(C(=O)NOCCO)cc21 [Selumetinib] (first compound max 1 µM, 7x7, partner max 3 µM)
Result block: 0.487

* * *

System: LAMA-84 (Chronic Myelogenous Leukemia)
experimentDescription: combination Emax (second highest fraction inhibited in the dose matrix, 72 h); higher = more inhibition; extreme values may be limits of the assay
Recorded combination Emax for the following molecules
Please state the value as a number alone, without comment.

Study these solved cases before continuing.
# molecule, testResult
records = [
    ("CC(=O)c1c(C)c2cnc(Nc3ccc(N4CCNCC4)cn3)nc2n(C2CCCC2)c1=O [Palbociclib] + Cc1c2c(nn1C)CSCc1cc(n(C)n1)CSc1cc(c3ccccc3c1)OCCCc1c(C(=O)O)n(C)c3c-2c(Cl)ccc13 [AZD5991] (first compound max 10 µM, 7x7, partner max 1 µM)", 0.663),
    ("CC1(C)CCC(CN2CCN(c3ccc(C(=O)NS(=O)(=O)c4ccc(NCC5CCOCC5)c([N+](=O)[O-])c4)c(Oc4cnc5[nH]ccc5c4)c3)CC2)=C(c2ccc(Cl)cc2)C1 [Venetoclax] + COc1cc(Nc2ncc3c(n2)-c2ccc(Cl)cc2C(c2c(F)cccc2OC)=NC3)ccc1C(=O)O [Alisertib] (first compound max 1 µM, 7x7, partner max 10 µM)", 0.934),
    ("COc1cccc2c1C(=O)c1c(O)c3c(c(O)c1C2=O)C[C@@](O)(C(=O)CO)C[C@@H]3O[C@H]1C[C@H](N)[C@H](O)[C@H](C)O1 [Doxorubicin] + Cc1cc2ncnn2cc1Nc1ncc2c(n1)n(C1CCOCC1)c(=O)n2C [AZD7648] (first compound max 1 µM, 7x7, partner max 10 µM)", 0.822),
    ("COc1cccc(OCCCN)c1-c1cc(Nc2cnc(C#N)cn2)n[nH]1 [Prexasertib] + CN(C)CCCOc1ccc(-c2ccc3ncc4c(c3c2)n(C2CCOCC2)c(=O)n4C)cn1 [AZD0156] (first compound max 1 µM, 7x7, partner max 1 µM)", 0.988),
    ("NC1(C(=O)N[C@@H](CCO)c2ccc(Cl)cc2)CCN(c2ncnc3[nH]ccc23)CC1 [Capivasertib] + C[C@@H]1COCCN1C2=NC(=NC(=C2)C3(CC3)[S@](=N)(=O)C)C4=C5C=CNC5=NC=C4 [AZD6738] (first compound max 10 µM, 7x7, partner max 10 µM)", 0.941),
    ("Cc1cc2ncnn2cc1Nc1ncc2c(n1)n(C1CCOCC1)c(=O)n2C [AZD7648] + C=CCn1c(=O)c2cnc(Nc3ccc(N4CCN(C)CC4)cc3)nc2n1-c1cccc(C(C)(C)O)n1 [AZD1775] (first compound max 10 µM, partner max 1 µM)", 0.953),
]

// below: combination Emax requested for another molecule
Query block: Give its combination Emax value. Item: CC1(C)CCC(CN2CCN(c3ccc(C(=O)NS(=O)(=O)c4ccc(NCC5CCOCC5)c([N+](=O)[O-])c4)c(Oc4cnc5[nH]ccc5c4)c3)CC2)=C(c2ccc(Cl)cc2)C1 [Venetoclax] + Cn1cnc2c(F)c(Nc3ccc(Br)cc3Cl)c(C(=O)NOCCO)cc21 [Selumetinib] (first compound max 1 µM, 7x7, partner max 3 µM)
Result block: 0.707

* * *

System: BALL-1 (B-Lymphoblastic Leukemia)
experimentDescription: Bliss excess, mean over the matrix (fraction); higher = more synergy
Recorded Bliss excess for the following molecules
Please state the value as a number alone, without comment.

# molecule, experimentalSystem, Bliss excess
data = [
    ("COc1cccc(OCCCN)c1-c1cc(Nc2cnc(C#N)cn2)n[nH]1 [Prexasertib] + CCc1c2c(nc3ccc(O)cc13)-c1cc3c(c(=O)n1C2)COC(=O)[C@]3(O)CC [SN-38] (first compound max 1 µM, 7x7, partner max 0.3 µM)", "BALL-1 (B-Lymphoblastic Leukemia)", -0.016),
]

Query block: Give its Bliss excess value. Item: CS(=O)(=O)CCNCc1ccc(-c2ccc3ncnc(Nc4ccc(OCc5cccc(F)c5)c(Cl)c4)c3c2)o1 [Lapatinib] + C[C@@H](Oc1cc(-c2cnn(C3CCNCC3)c2)cnc1N)c1c(Cl)ccc(F)c1Cl [Crizotinib] (first compound max 10 µM, 7x7, partner max 10 µM)
Result block: 0.0146

* * *

Tested on: KYM-1 (Rhabdomyosarcoma)
experimentDescription: Bliss excess, mean over the matrix (fraction); higher = more synergy
resultType: Bliss excess
Please state the value as a number alone, without comment.

# molecule, Bliss excess
data = [
    ("Cc1c2c(nn1C)CSCc1cc(n(C)n1)CSc1cc(c3ccccc3c1)OCCCc1c(C(=O)O)n(C)c3c-2c(Cl)ccc13 [AZD5991] + Nc1ccn([C@@H]2O[C@H](CO)[C@@H](O)C2(F)F)c(=O)n1 [Gemcitabine] (first compound max 1 µM, 7x7, partner max 0.3 µM)", 0.0209),
    ("CC(=O)c1c(C)c2cnc(Nc3ccc(N4CCNCC4)cn3)nc2n(C2CCCC2)c1=O [Palbociclib] + Cc1c2c(nn1C)CSCc1cc(n(C)n1)CSc1cc(c3ccccc3c1)OCCCc1c(C(=O)O)n(C)c3c-2c(Cl)ccc13 [AZD5991] (first compound max 10 µM, 7x7, partner max 1 µM)", 0.0337),
    ("CC1(C)CCC(CN2CCN(c3ccc(C(=O)NS(=O)(=O)c4ccc(NCC5CCOCC5)c([N+](=O)[O-])c4)c(Oc4cnc5[nH]ccc5c4)c3)CC2)=C(c2ccc(Cl)cc2)C1 [Venetoclax] + CS(=O)(=O)CCNCc1ccc(-c2ccc3ncnc(Nc4ccc(OCc5cccc(F)c5)c(Cl)c4)c3c2)o1 [Lapatinib] (first compound max 1 µM, 7x7, partner max 10 µM)", -0.0027),
    ("Cc1c2c(nn1C)CSCc1cc(n(C)n1)CSc1cc(c3ccccc3c1)OCCCc1c(C(=O)O)n(C)c3c-2c(Cl)ccc13 [AZD5991] + Cn1cnc2c(F)c(Nc3ccc(Br)cc3Cl)c(C(=O)NOCCO)cc21 [Selumetinib] (first compound max 1 µM, 7x7, partner max 3 µM)", 0.0084),
    ("Cc1c2c(nn1C)CSCc1cc(n(C)n1)CSc1cc(c3ccccc3c1)OCCCc1c(C(=O)O)n(C)c3c-2c(Cl)ccc13 [AZD5991] + C[C@@H](Nc1cc(F)cc(F)c1)c1cc(C(=O)N(C)C)cc2c(=O)cc(N3CCOCC3)oc12 [AZD8186] (first compound max 1 µM, 7x7, partner max 3 µM)", 0.0291),
]

Query block: Give recorded Bliss excess with KYM-1 (Rhabdomyosarcoma) for the following molecule: COc1nnc2ccc(N3CCC(c4ccc(OCCN5CCN(C)C(=O)[C@H]5C)cc4)CC3)nn12 [AZD5153] + CCN(CCO)CCCOc1ccc2c(Nc3cc(CC(=O)Nc4cccc(F)c4)[nH]n3)ncnc2c1 [AZD2811] (first compound max 1 µM, 7x7, partner max 1 µM)
Result block: -0.0682

Query block: Give recorded Bliss excess with KYM-1 (Rhabdomyosarcoma) for the following molecule: CN(C)CCCOc1ccc(-c2ccc3ncc4c(c3c2)n(C2CCOCC2)c(=O)n4C)cn1 [AZD0156] + CCN(CCO)CCCOc1ccc2c(Nc3cc(CC(=O)Nc4cccc(F)c4)[nH]n3)ncnc2c1 [AZD2811] (first compound max 1 µM, 7x7, partner max 1 µM)
Result block: -0.0186

Query block: Give recorded Bliss excess with KYM-1 (Rhabdomyosarcoma) for the following molecule: Cc1c2c(nn1C)CSCc1cc(n(C)n1)CSc1cc(c3ccccc3c1)OCCCc1c(C(=O)O)n(C)c3c-2c(Cl)ccc13 [AZD5991] + Cc1cc2ncnn2cc1Nc1ncc2c(n1)n(C1CCOCC1)c(=O)n2C [AZD7648] (first compound max 1 µM, 7x7, partner max 10 µM)
Result block: 0.0136

Query block: Give recorded Bliss excess with KYM-1 (Rhabdomyosarcoma) for the following molecule: Cc1cc2ncnn2cc1Nc1ncc2c(n1)n(C1CCOCC1)c(=O)n2C [AZD7648] + COc1cc([C@@H]2c3cc4c(cc3[C@@H](O[C@@H]3O[C@@H]5CO[C@@H](C)O[C@H]5[C@H](O)[C@H]3O)[C@H]3COC(=O)[C@H]23)OCO4)cc(OC)c1O [Etoposide] (first compound max 10 µM, 7x7, partner max 10 µM)
Result block: 0.119

Query block: Give recorded Bliss excess with KYM-1 (Rhabdomyosarcoma) for the following molecule: O=C(c1cc(Cc2n[nH]c(=O)c3ccccc23)ccc1F)N1CCN(C(=O)C2CC2)CC1 [Olaparib] + COc1nnc2ccc(N3CCC(c4ccc(OCCN5CCN(C)C(=O)[C@H]5C)cc4)CC3)nn12 [AZD5153] (first compound max 10 µM, 7x7, partner max 1 µM)
Result block: -0.0479

Query block: Give recorded Bliss excess with KYM-1 (Rhabdomyosarcoma) for the following molecule: O=C(c1cc(Cc2n[nH]c(=O)c3ccccc23)ccc1F)N1CCN(C(=O)C2CC2)CC1 [Olaparib] + Cc1c2c(nn1C)CSCc1cc(n(C)n1)CSc1cc(c3ccccc3c1)OCCCc1c(C(=O)O)n(C)c3c-2c(Cl)ccc13 [AZD5991] (first compound max 10 µM, 7x7, partner max 1 µM)
Result block: 0.0435

Query block: Give recorded Bliss excess with KYM-1 (Rhabdomyosarcoma) for the following molecule: COc1cccc2c1C(=O)c1c(O)c3c(c(O)c1C2=O)C[C@@](O)(C(=O)CO)C[C@@H]3O[C@H]1C[C@H](N)[C@H](O)[C@H](C)O1 [Doxorubicin] + Cc1cc2ncnn2cc1Nc1ncc2c(n1)n(C1CCOCC1)c(=O)n2C [AZD7648] (first compound max 1 µM, 7x7, partner max 10 µM)
Result block: 0.0837

Query block: Give recorded Bliss excess with KYM-1 (Rhabdomyosarcoma) for the following molecule: CN(CCO)CC[C@H](CSc1ccccc1)Nc1ccc(S(=O)(=O)NC(=O)c2ccc(N3CCC([C@@H](O)c4ccccc4-c4ccc(Cl)cc4)CC3)cc2)cc1S(=O)(=O)C(F)(F)F [AZD4320] + CS(=O)(=O)CCNCc1ccc(-c2ccc3ncnc(Nc4ccc(OCc5cccc(F)c5)c(Cl)c4)c3c2)o1 [Lapatinib] (first compound max 1 µM, 7x7, partner max 10 µM)
Result block: 0.021
